# TEST_METHOD_NOTES: NCI Yeast Anticancer Drug Screen. Data for the sgs1 mgt1 strain (AID 161);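 further: 0% = growth of cultures given vehicle only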
# MEASUREMENT_CONTEXT: S. cerevisiae sgs1 mgt1 strain, at 50.0 µM, active compounds read high
The panel holds about 79,000 compounds, 15% with a hit somewhere; the sample as a whole holds those more often.
PROPERTY: growth inhibition (%)
Write it as a number; the unit % goes unstated.

Example cases with answers are listed next.
# MOLECULE, U, growth inhibition
rows = [
    ("CN(C)CC/C(=N\\Nc1ccc(Cl)c(Cl)c1)c1ccccc1", "%", 99.6),
    ("O=C1C=CC(=O)N1c1cccc([N+](=O)[O-])c1", "%", 99.5),
    ("CN(C)Cc1cc(C(C)(C)C)cc(C2CCCCC2)c1O", "%", 74.3),
    ("O=C1OC(CCl)CC12CC(CCl)OC2=O (stereo unspecified)", "%", 94),
    ("Nc1ccc2ccccc2c1N=Cc1ccccc1[N+](=O)[O-]", "%", 96.8),
]

Reported growth inhibition, molecule C[C@H](CCC(=O)O)[C@H]1CC[C@H]2[C@@H]3CC[C@@H]4C[C@H](O)CC[C@]4(C)[C@H]3C[C@H](O)[C@]12C : ____
99.3

Source: PubChem BioAssay (NCI)
